experiment: protein stability index of a GFP-peptide fusion (GPS, HEK-293T) (PSI 1-6); higher = more stable; settings: treatment: MLN4924 1 uM, 8 h; c terminus: a fixed tail appended;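 further: 24-mer peptide tiles fused after GFP, lentivirally expressed, FACS-sorted into six equal bins by GFP/DsRed ratio, decoded by Illumina sequencing, PSI is the read-weighted mean bin number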
The entries below are paired with their reported protein stability index.
Lab note: write the figure by itself, no unit.

Check out these entries, answers already filled in.
- residue_string: "TKPVVILPCQHNLCRKCANDIFQA [TRIM63]"
  protein stability index: 2.55
- residue_string: "DTKMSFQWRIRNLPYPKDVYSVSV [DPCD]"
  protein stability index: 2.71

input: Entry MSHHPSGLRAGFSSTSYRRTFGPP [PRPH] : reported protein stability index = ?
output: 2.94

input: Entry KMAVSRHLTRGRKMAHVIAACLYL [BRF1] : reported protein stability index = ?
output: 2.6
